- Tested on: HOP-62 NSCLC
- measurement-description: NCI tumour cell line growth inhibition, 48 h; in the data active means GI50 below about 0.43 µM; inactive means the rest
Possible outcomes: active, inactive

- Cc1cn2c(/C=N/N=C(N)N)c(-c3cccnc3)nc2s1: inactive
- C=C(CN1CCN(c2cccc(C(F)(F)F)n2)CC1)c1ccc(C(=S)Nc2ccccc2N)cc1: inactive
- OCC1OC(n2cnc3c(Cl)nc(Cl)cc32)C(O)C1O (stereo not drawn): inactive
- C/C(=C\COc1c2c(cc3c1CCO3)OC1(C=C2)OC(CC/C(C)=C/COc2c3ccoc3cc3oc(=O)ccc23)C(C)(C)O1)CCC(O)C(C)(C)O (stereo not drawn): inactive
- CC[C@@]1(O)C(=O)OCc2c1cc1n(c2=O)Cc2c-1nc1cc3c(cc1c2C)OCO3: active
- CCOC(=O)/C(=C(/C)NCC(C)C)c1cc(O)c(O)c2c(C)cc(=O)[nH]c12: inactive
- COc1cc(O)c2c(c1)C(=O)c1cc3c(c(O)c1C2=O)C(OC1OC(C)C(O)C(O)C1OC)C(OC)C(C)(O)C3=O (stereo not drawn): inactive
- CN(C)CCCNC(=O)c1cncnc1Nc1ccc(OCc2cccc(F)c2)c(Cl)c1: inactive
- CCc1ccc2c(c1)N(CCO)C1=C(C(=O)OC1)C2c1cccc(Cl)c1 (stereo not drawn): inactive
- CC1=C([Te]c2ccc(O)cc2)C(=O)c2ccccc2C1=O: inactive
- O=C(NN=C1CCCCC1)c1[nH]c2ccc(F)cc2c1-c1ccccc1: inactive
- C[n+]1ccc(-c2c3nc(c(-c4cc[n+](C)cc4)c4ccc([n-]4)c(-c4cc[n+](C)cc4)c4nc(c(-c5cc[n+](C)cc5)c5ccc2[n-]5)C=C4)C=C3)cc1.[I-].[Zn+2]: inactive
- COc1ccc(-c2cc(-c3ccc(O)cc3)nc3n[nH]c(N)c23)cc1: inactive

----------
Reported TGI is given for each of the following compounds.
- System: OVCAR-8 ovarian
- measurement-description: NCI tumour cell line growth inhibition, 48 h
measurement-name: TGI

* CCS(=O)(=O)Nc1cccc(Nc2c3cccc(C)c3nc3c(C)cccc23)c1OC | 74.5 µM
* COC(=O)[C@H](Cc1ccc(O)cc1)NC(=O)[C@@H](OC)[C@@H]1Cc2cc3cc(OC4CC(OC5CC(O)C(O)C(C)O5)C(O)C(C)O4)c(C)c(O)c3c(O)c2C(=O)[C@H]1OC1CC(OC2CC(OC3CC(C)(O)C(O)C(C)O3)C(O)C(C)O2)C(O)C(C)O1 (some centres undefined) | > 25 µM
* CCOc1ccc(NC(=O)C2=C(C)NC(C)=C(C(=O)Nc3ccc(OCC)cc3)C2c2ccccc2)cc1 | > 100 µM
* Cc1ccc(C(=O)OCC(C)C)cc1N=NN(C)C | > 100 µM

----------
- Test system: HS 578T breast
- measurement-description: NCI tumour cell line growth inhibition, 48 h
measurement-name: TGI

* Cc1cc(-c2nc3ccc(F)cc3s2)ccc1N | > 100 µM
* COc1cc(Nc2nc3ccc(C(F)(F)F)cc3nc2C(=O)O)cc(OC)c1OC | 54.8 µM
* CCOC(=O)c1ccc(Nc2nc3ccccc3nc2C(=O)OCC)cc1 | > 100 µM
* O=C(Nc1ccc(Cl)c(Cl)c1)N1N=C2c3ccccc3CCC2C1c1ccc(Cl)cc1 (stereo not given) | > 100 µM
* CC(=N\N=C\c1ccccn1)/C(C)=N/N=C(C)/C(C)=N/N=C/c1ccccn1 | > 100 µM

----------
- System: OVCAR-5 ovarian
- measurement-description: NCI tumour cell line growth inhibition, 48 h
measurement-name: TGI

• O=C(Oc1ccc(Cl)cc1[N+](=O)[O-])c1ccccc1 = > 100 µM
• O[C@@H]1C[C@H]2N3CC[C@@]2(c2cc4c(cc2C3)OCO4)[C@H]2O[C@@H]12 = > 100 µM
• CNc1nnc(CNc2ccc(-c3nnc(NC)n3N)cc2)n1N = > 100 µM
• CC[C@@H]1C[C@H]2CC3c4[nH]c5ccc(O)cc5c4CCN(C2)C31 = > 100 µM
• O=C(/C(=C/c1ccc([N+](=O)[O-])cc1)SCc1ccc(F)cc1)c1ccc(Cl)cc1 = 38.9 µM
• O=C1OC2CC=CC1C2 (centres undefined) = > 100 µM
• CC(=O)O[C@H]1CCC2[C@@H]3CCC4Cc5nc6c(nc5C[C@]4(C)C3CC[C@@]21C)CC1CC[C@@H]2C(CC[C@@]3(C)C2CC[C@@H]3C(C)CCCC(C)C)[C@@]1(C)C6 (some centres undefined) = > 100 µM
• O=C(NCc1ccco1)c1ccc(NC2=C(Cl)C(=O)N(Cc3ccccc3)C2=O)cc1 = 44.9 µM
• C[n+]1ccc(-c2c3nc(c(-c4cc[n+](C)cc4)c4ccc([n-]4)c(-c4cc[n+](C)cc4)c4nc(c(-c5cc[n+](C)cc5)c5ccc2[n-]5)C=C4)C=C3)cc1.[I-].[Zn+2] = > 100 µM

----------
- Tested on: TK-10 renal
- measurement-description: NCI tumour cell line growth inhibition, 48 h
measurement-name: GI50

- O=c1c2c3c(sc2nc(N/N=C/c2ccc(Br)cc2)n1Cc1ccccc1)CCCC3: 39.9 µM
- COc1cc(/C=C/C(=O)c2ccc(NC(=O)CSc3nnc(-c4cc(OC)c(OC)c(OC)c4)n3-c3ccccc3)cc2)cc(OC)c1OC: 9.3 µM
- O=C(NN=C1CCCCC1)c1[nH]c2ccc(F)cc2c1-c1ccccc1: 91 µM
- N#CC1=C(N)NC(=S)NC12Nc1ccccc1N2: 46.4 µM
- CCN(CC)CCCC(C)N=c1cc(Nc2cc(=NC(C)CCCN(CC)CC)c3cc(OC)ccc3o2)oc2ccc(OC)cc12 (centres undefined): 1.3 µM
- N#CS.N=C=S.N=C=S.[Cu+2].[NH2-].[NH2-].[NH2-].[NH2-].c1ccc2ncccc2c1: 90 µM
- CCCCCCCCCCCCOC1C(C(CC(=O)N2CCN(c3cccc(C(F)(F)F)c3)CC2)NS(=O)(=O)c2cc(Cl)cc(Cl)c2)OC2OC(C)(C)OC21 (centres undefined): > 100 µM
- O=C(NCc1ccncc1)C12CC3CC(C1)CC(c1ccc(Cl)cc1)(C3)C2: 15.3 µM
- CCOC(=O)/C(=C(/C)NCC(C)C)c1cc(O)c(O)c2c(C)cc(=O)[nH]c12: 9.18 µM

----------
- Test system: HCC-2998 colon
- measurement-description: NCI tumour cell line growth inhibition, 48 h; in the data active = GI50 below about 0.43 µM; inactive = the rest
Outcomes: 1.0 (active), 0.0 (inactive)

• CC1=C([Te]c2ccc(O)cc2)C(=O)c2ccccc2C1=O = 0.0
• COc1cc(-c2nn(-c3cccc(NC(=O)c4ccc(N5CCOCC5)c(C(F)(F)F)c4)c3)cc2-c2ccncc2)ccc1Cl = 0.0
• C/C(=C\COc1c2c(cc3c1CCO3)OC1(C=C2)OC(CC/C(C)=C/COc2c3ccoc3cc3oc(=O)ccc23)C(C)(C)O1)CCC(O)C(C)(C)O (stereo not drawn) = 0.0
• O=C(/C(=C/c1ccc([N+](=O)[O-])cc1)SCc1ccc(F)cc1)c1ccc(Cl)cc1 = 0.0
• S=C(N/N=C(/c1ccccc1)c1ccccn1)N1CCCCCC1 = 0.0
• C=C1C(=O)O[C@@H]2C1C[C@@H](O)C(=C)CC/C=C(\C)CCC[C@H](C)[C@H]2OC(C)=O (stereo partly drawn) = 0.0
• CCCCCCc1nc2nc(Cl)c(Cl)nc2[nH]1 = 0.0
• COc1cc(O)c2c(c1)C(=O)c1cc3c(c(O)c1C2=O)C(OC1OC(C)C(O)C(O)C1OC)C(OC)C(C)(O)C3=O (stereo not drawn) = 0.0
• Cc1cc(O)cc(C)c1/C=C/c1cncc(-c2nn[nH]n2)c1 = 0.0
• CC[C@@]1(O)C(=O)OCc2c1cc1n(c2=O)Cc2c-1nc1cc3c(cc1c2C)OCO3 = 1.0
• C[n+]1ccc(-c2c3nc(c(-c4cc[n+](C)cc4)c4ccc([n-]4)c(-c4cc[n+](C)cc4)c4nc(c(-c5cc[n+](C)cc5)c5ccc2[n-]5)C=C4)C=C3)cc1.[I-].[Zn+2] = 0.0
• NC1=NCCN1CC(=O)O = 0.0
• COc1cnc2c(c1)C(=O)c1c-2n(CCCNC(C)C)c(=O)c2cc(F)ccc12 = 1.0

----------
Reported log10 of TGI values are given for each entry in this list.
- Tested on: SK-MEL-5 melanoma
- measurement-description: NCI tumour cell line growth inhibition, 48 h
measurement-name: log10 of TGI (log10 of the value in µM)

• Nc1c(C(=O)c2ccc(CCCN3CCOCC3)cc2)cnn1-c1ccc(F)cc1 = 1.39
• COC(=O)[C@H](Cc1ccc(O)cc1)NC(=O)[C@@H](OC)[C@@H]1Cc2cc3cc(OC4CC(OC5CC(O)C(O)C(C)O5)C(O)C(C)O4)c(C)c(O)c3c(O)c2C(=O)[C@H]1OC1CC(OC2CC(OC3CC(C)(O)C(O)C(C)O3)C(O)C(C)O2)C(O)C(C)O1 (some centres undefined) = -0.35
• C[C@H](CCCNCCCNCCCN)[C@H]1CC[C@H]2[C@@H]3[C@H](OCCCN)C[C@H]4C[C@H](OCCCN)CC[C@]4(C)[C@H]3C[C@H](OCCCN)[C@]12C = 0.52
• SC1CCCN(Cc2ccccc2)C1 (centres undefined) = 1.55
• CCc1ccc2c(c1)N(CCO)C1=C(C(=O)OC1)C2c1cccc(Cl)c1 (centres undefined) = 0.88
• c1ccc(C[N+]23CN4CN(CN(C4)C2)C3)cc1 = 1.70
